assay: Cytotoxic activity of compound against MEL-28 (Human melanoma) cell line; assay type: functional; conditions: SK-MEL-28
quantity-measured: pIC50
pIC50 is defined as minus the log10 of a concentration measured in mol/L.

Name the recorded pIC50 for O=C1c2cccnc2C(=O)c2ncccc21 .
5.32

Repeat for the following compound: Cc1ccnc2c1C(=O)c1c(C)ccnc1C2=O
5.68

Repeat for the following compound: Cc1cc[n+](N(C)C)c2c1C(=O)c1nccc(Cl)c1C2=O
6.48

Repeat for the following compound: CCc1cnc2c(c1)C(=O)c1ncc(CC)cc1C2=O
6.42

Repeat for the following compound: COc1cccc2c1C(=O)c1c(O)c3c(c(O)c1C2=O)C[C@@](O)(C(=O)CO)C[C@@H]3O[C@H]1C[C@H](N)[C@H](O)[C@H](C)O1 [DOXORUBICIN]
7.52

Repeat for the following compound: CCc1c(C)cnc2c1C(=O)c1ncc(C)c(CC)c1C2=O
5.47

Repeat for the following compound: O=C1c2nccc(-c3ccccc3[N+](=O)[O-])c2C(=O)c2nccc(Cl)c21
7.52

Repeat for the following compound: Cc1cnc2c(c1)C(=O)c1nccc(Cl)c1C2=O
7.52

Repeat for the following compound: CCc1c(C)cnc2c1C(=O)c1c(ncc(C)c1CC)C2=O
5.07

Repeat for the following compound: O=C1c2cccnc2C(=O)c2cccnc21
5.32

Repeat for the following compound: Cc1cnc2c(c1)C(=O)c1ncc(C)cc1C2=O
7.40

Repeat for the following compound: Cc1ccnc2c1C(=O)c1nc3c(cc1C2=O)CCCC3
4.75

Repeat for the following compound: O=C1c2nccc(-c3ccccc3[N+](=O)[O-])c2C(=O)c2nccc(O)c21
5.14

Repeat for the following compound: Cc1ccnc2c1C(=O)c1nccc(Cl)c1C2=O
6.72

Repeat for the following compound: Cc1ccnc2c1C(=O)c1nccc(C)c1C2=O
6.00

Repeat for the following compound: CCc1cnc2c(c1)C(=O)c1cc(CC)cnc1C2=O
6.10

Repeat for the following compound: Cc1cnc2c(c1)C(=O)c1cc(C)cnc1C2=O
6.68

Repeat for the following compound: Cc1ccnc2c1C(=O)c1nccc(N(C)C)c1C2=O
6.43
